Some binders, each annotated with its measured IC50.
# Test target: RBDSARS-CoV (SARS-CoV S protein residues 318-510, C-terminal His-tag) (SARS-CoV, UniProt P59594 318-510)
# Assay info: ELISA

Binder	IC50
4P-4 (VHH) VHH: DVQLVESGGGLVQAGDSLRLSCAASGRTFGNYVLDWFRQAPGKEREFVASITQTGFGTYYADAVKGRFTISRDNAKNTMYLQMNSLKPEDTAVYYCAADFTAQNRGIRIPRYWGQGTQVTVSS	0.1 to 1 µM
5p-156 (VHH) VHH: EVQLVESGGGLVQAGDSLRLSCVASGRTFTTSIMGWFRQAPGKEREFVAAIARNGVSTFYADSVKGRFTASRDNAKNTLYLQMNSLKPEDTGVYYCAAKPRGVGLTDRISDYDYWGQGTQVTVSS	0.01 to 0.1 µM
R58 (VHH) VHH: QVQLVESGGGLVQAGGSLRLSCAASGRDFSSTVMGWFRQAPGKERELVAWMTVTYDITYYADSVKGRFTISKDNAKNTVYLQANSLKPDDTAVYYCASGALRVGSFSPDYWGQGTQVTVSS	1 to 8 µM
5p-98 (VHH) VHH: QVQLVESGGGLVQPGGSLRLSCAASGRTLSNYAMGWFRQAPGKEREFVAVIRQRTGMRSYTYYADSVEGRFTISGDGAKMTVSLQMNSLKPEDTAVYYCAIDLIDDYKSTYYYSTQPSSYDYWGQGTQVTVSS	0.01 to 0.1 µM

Where these numbers come from: patent US20250002563A1
